studySystem: D(1A) dopamine receptor (Homo sapiens) (UniProt P21728)
Sequence (P21728 whole entry, looked up): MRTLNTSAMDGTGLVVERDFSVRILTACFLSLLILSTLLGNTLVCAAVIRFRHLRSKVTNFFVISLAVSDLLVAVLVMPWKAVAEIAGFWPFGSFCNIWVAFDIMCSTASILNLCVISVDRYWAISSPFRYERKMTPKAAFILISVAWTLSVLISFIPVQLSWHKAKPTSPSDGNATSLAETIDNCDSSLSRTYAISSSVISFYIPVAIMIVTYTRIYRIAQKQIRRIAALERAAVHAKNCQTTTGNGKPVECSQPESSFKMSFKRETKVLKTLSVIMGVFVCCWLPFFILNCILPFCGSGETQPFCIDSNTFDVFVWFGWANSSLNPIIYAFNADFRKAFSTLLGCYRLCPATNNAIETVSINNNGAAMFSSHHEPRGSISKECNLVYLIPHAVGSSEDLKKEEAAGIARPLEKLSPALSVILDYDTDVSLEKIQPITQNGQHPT
experiment: Allosteric Agonists of the Human D1 Dopamine Receptor: qHTS; also: 0% is about no effect
assayContext: HEK293 T-REx D1 cells, calcium flux, agonist mode; at 2 µM
About 3,700 (1%) of roughly 360,000 compounds were called active. Rule as the data show it: active = activation above about 30%; inactive = the rest. The full list was thinned out, with actives kept by preference.
Hi there, use one of these labels in your reply, thanks! yes (1) = active, no (0) = inactive

Worked cases, answers included:
[[record]]
compound = "C=C(Br)Cn1c(CCCC)nc2ccccc21"
labelclass = "no (0)"

[[record]]
compound = "CCN(CC(=O)Nc1ccc2c(c1)OCO2)S(=O)(=O)c1ccccc1"
labelclass = "no (0)"

[[record]]
compound = "COCc1nc2ccccc2n1Cc1ccccc1Br"
labelclass = "yes (1)"


## Task Call for entry COc1ccccc1Cn1c(CO)nc2ccccc21 :
## Result no (0)

## Task Another compound: CN(C)c1ccc(C(=O)NCC(=O)OC(C(=O)Nc2cc(C(F)(F)F)ccc2Cl)c2ccccc2)cc1 (stereo not given)
## Result no (0)

Reference source: PubChem BioAssay AID504660
